- TEST SYSTEM: Nucleoli Translocation, AR (gene 367)
- PROTOCOL DETAILS: UPITT_HCI_U2OS_AR_TIF2_Nucleoli_Agonist: University of Pittsburgh U2OS Androgen Receptor-Transcriptional Intermediary Factor 2 (AR-TIF2) Agonism High Content Imaging Assay for Nucleoli Translocation (AID 2283998)
Records with an inconclusive call do not appear. The source made the active and inactive calls. The calls were made as follows: active = hit-call score of the fitted dose curve at least 0.9, where 1 is the maximum; inconclusive = response in the unintended direction; inactive = score below 0.9.
Response enum: active, inactive

Reference set, count: 5
INSERT INTO measurements (compound, discrete_label) VALUES
  ('O=C(c1ccc(O)cc1O)c1ccc(O)cc1O', 'inactive'),
  ('C[C@]12CC[C@@H]3c4ccc(O)cc4C[C@@H](CCCCCCCCCS(=O)CCCC(F)(F)C(F)(F)F)[C@H]3[C@@H]1CC[C@@H]2O (some centres not stated)', 'inactive'),
  ('COC(=O)CSc1cc(N=c2sc(=O)n3n2CCCC3)c(F)cc1Cl', 'inactive'),
  ('CC(C)(c1ccc(O)cc1)c1ccc(O)cc1', 'active'),
  ('CSC(=O)c1cccc2nnsc12', 'inactive');

Exercise: Per the records of this test, what outcome belongs to N#CSCSc1nc2ccccc2s1 ?
Solution: active

Exercise: Per the records of this test, what outcome belongs to Cc1nn(C)c(Oc2ccccc2)c1C=NOCc1ccc(C(=O)OC(C)(C)C)cc1 ?
Solution: inactive

###

- Test system: zebrafish Estrogen Receptor (ER2b), gene 317733
- PROTOCOL DETAILS: ATG_zfER2b_XSP2: Attagene TRANS-FACTORIAL Multi-Species (XSP2) HepG2 Assay for zebrafish Estrogen Receptor (ER2b) (AID 2283823);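 also: fitted upward as reporter gain over DMSO so potency reflects activation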
Records with an inconclusive call do not appear. Calls of active or inactive are those of the source. Rule for the calls: active = hit-call score of the fitted dose curve at least 0.9, where 1 is the maximum; inconclusive = response in the unintended direction; inactive = score below 0.9.
Response enum: 1 (active), 0 (inactive)

Reference set, count: 6
INSERT INTO measurements (compound, discrete_label) VALUES
  ('CC(C)CCCCCCc1ccc(O)cc1', 1),
  ('CCCCC(CC)CN1C(=O)C2C3C=CC(C3)C2C1=O (stereo not drawn)', 1),
  ('CC(=O)S[C@@H]1CC2=CC(=O)CC[C@]2(C)[C@H]2CC[C@@]3(C)[C@@H](CC[C@@]34CCC(=O)O4)[C@H]12', 1),
  ('C=CCOC(Cn1ccnc1)c1ccc(Cl)cc1Cl (stereo not drawn)', 0),
  ('Oc1ccc(C(c2ccc(O)cc2)C(Cl)(Cl)Cl)cc1', 1),
  ('CC1(C)C(C=C(Cl)Cl)C1C(=O)OCc1cccc(Oc2ccccc2)c1 (stereo not drawn)', 1);

Exercise: Per the records of this test, what outcome belongs to O=C(c1ccc(O)cc1O)c1ccc(O)cc1O ?
Solution: 1

Exercise: Per the records of this test, what outcome belongs to CCCCC(CC)COC(=O)c1ccccc1C(=O)O (stereo not drawn) ?
Solution: 1

###

- Read-out: Matrix Metallopeptidase 1 (MMP1), MMP1 (gene 4312)
- PROTOCOL DETAILS: BSK_hDFCGF_MMP1: BioMAP Diversity Plus: hDFCGF Assay for Matrix Metallopeptidase 1 (MMP1) Biomarker Activity (AID 2283064)
- CONDITION LABEL: primary human foreskin fibroblasts; actives raise or lower the signal
Activity calls are given as the source filed them. The calls were made as follows: active = hit-call score of the fitted dose curve at least 0.9, where 1 is the maximum; inactive = score below 0.9.
MEASURED PROPERTY: AC50

Worked set:
INSERT INTO measurements (compound, val) VALUES
  ('CCOC(=O)[C@H](C)Oc1ccc(Oc2nc3ccc(Cl)cc3o2)cc1', 'inactive'),
  ('CCCN(CCC)C(=O)SCC', 'inactive'),
  ('CCN(CC)C(=O)c1cccc(C)c1', 'inactive'),
  ('CCCCOCCOCCOCc1cc2c(cc1CCC)OCO2', '3.97 µM (active)');

Exercise: Which AC50 value is on record for CCN(Cc1c(F)cccc1Cl)c1c([N+](=O)[O-])cc(C(F)(F)F)cc1[N+](=O)[O-] ?
Solution: 9.24 µM (active)

Exercise: Which AC50 value is on record for CC(C)(C)[C@@H](O)[C@@H](Cc1ccc(Cl)cc1)n1cncn1 ?
Solution: 1.42 µM (active)

Exercise: Which AC50 value is on record for COC(=O)c1cccc(C)c1S(=O)(=O)NC(=O)Nc1nc(OCC(F)(F)F)nc(N(C)C)n1 ?
Solution: inactive

Exercise: Which AC50 value is on record for CCOC(=O)c1ccc(O)cc1 ?
Solution: inactive

Exercise: Which AC50 value is on record for CCCCCCC(C)OC(=O)COc1nc(F)c(Cl)c(N)c1Cl (stereo unspecified) ?
Solution: 30.3 µM (active)

Exercise: Which AC50 value is on record for Oc1ccc(C(c2ccc(O)cc2)C(Cl)(Cl)Cl)cc1 ?
Solution: 29.7 µM (active)

Exercise: Which AC50 value is on record for CCCCOC(=O)[C@@H](C)Oc1ccc(Oc2ccc(C(F)(F)F)cn2)cc1 ?
Solution: inactive

###

- PROTOCOL DETAILS: ATG_NRF2_ARE_CIS: Attagene CIS-FACTORIAL HepG2 Assay for human Nuclear Factor Erythroid 2 Related Factor 2 (NFR2) response to Antioxidant Response Elements (ARE) (AID 2282992)
- CONDITION LABEL: HepG2 Attagene ARE/NRF2 reporter, transcription factor activity; actives raise or lower the signal
The source made the active and inactive calls. How the source made its calls: active means hit-call score of the fitted dose curve at least 0.9, where 1 is the maximum; inactive means score below 0.9.
Response enum: yes (1) (active), no (0) (inactive)

Reference set, count: 5
INSERT INTO measurements (molecule, discrete_label) VALUES
  ('CCCCOC(=O)C(C)Oc1ccc(Oc2ccc(C(F)(F)F)cn2)cc1 (stereo unspecified)', 'no (0)'),
  ('Cc1nn(C)c(Oc2ccccc2)c1C=NOCc1ccc(C(=O)OC(C)(C)C)cc1', 'yes (1)'),
  ('CCN(Cc1c(F)cccc1Cl)c1c([N+](=O)[O-])cc(C(F)(F)F)cc1[N+](=O)[O-]', 'yes (1)'),
  ('CCOC(=O)NCCOc1ccc(Oc2ccccc2)cc1', 'yes (1)'),
  ('CSC(=O)c1cccc2nnsc12', 'no (0)');

Exercise: Per the records of this test, what outcome belongs to COC(=O)c1ccccc1C(=O)O ?
Solution: no (0)

###

- Read-out: Keratin 19 (KRT19), KRT19 (gene 3880)
- PROTOCOL DETAILS: LTEA_HepaRG_KRT19: Life Technologies and Expression Analysis (LTEA) Assay for Keratin 19 (KRT19) using HepaRG (AID 2283512)
- CONDITION LABEL: mRNA level, 48 h; actives raise or lower the signal
- Description: LTEA_HepaRG is a cell based, multiplexed-readout assay that uses HepaRG, a human liver cell line, with measurements taken at 48 hours after chemical dosing on a 96-well plate.LTEA_HepaRG_KRT19 is one of 102 assay component(s) measured in the LTEA HepaRG cell culture assay. It is a marker of Cell proliferation, survival, death.Data from the assay component LTEA_HepaRG_KRT19 was analyzed into 1 endpoint. […]
The source made the active and inactive calls. How the source made its calls: active means hit-call score of the fitted dose curve at least 0.9, where 1 is the maximum; inactive means score below 0.9.
MEASURED PROPERTY: AC50

INSERT INTO results (smiles_text, val) VALUES
  ('O=C(Nc1ccc([N+](=O)[O-])cc1Cl)c1cc(Cl)ccc1O', '1.48 µM (active)'),
  ('CCN(CC)C(=O)c1cccc(C)c1', 'inactive'),
  ('C#C[C@]1(O)CC[C@H]2[C@@H]3CCC4=CC(=O)CC[C@@H]4[C@H]3CC[C@@]21CC', 'inactive'),
  ('COc1c(Cl)ccc(Cl)c1C(=O)O', 'inactive'),
  ('O=C(c1ccc(O)cc1O)c1ccc(O)cc1O', 'inactive');

Exercise: Which AC50 value is on record for c1ccc2[nH]c(-c3cscn3)nc2c1 ?
Solution: 35.2 µM (active)

###

- PROTOCOL DETAILS: APR_HepG2_MicrotubuleCSK_72hr: Apredica 72-hour HepG2 Assay for Microtubule CSK Stabilty (AID 2282919)
- CONDITION LABEL: HepG2 microtubule cytoskeleton, high-content imaging, actives raise or lower the signal
The source made the active and inactive calls. How the source made its calls: active means hit-call score of the fitted dose curve at least 0.9, where 1 is the maximum; inactive means score below 0.9.
Response enum: active, inactive

Reference set, count: 3
INSERT INTO results (compound, discrete_label) VALUES
  ('CCCOC(=O)c1ccc(C(=O)OCCC)nc1', 'inactive'),
  ('OB(O)O', 'inactive'),
  ('CCCCC(CC)CN1C(=O)C2C3C=CC(C3)C2C1=O (stereo not drawn)', 'active');

Switching to the query record.
Exercise: Per the records of this test, what outcome belongs to CC(C)CCCCCCc1ccc(O)cc1 ?
Solution: active

###

- PROTOCOL DETAILS: BSK_3C_SRB: Viability Assessment in the BioMAP Diversity Plus: 3C Assay (AID 2283023);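 also: cells read 24 h after compound dosing; fitted both ways against DMSO so a hit may be signal rise or drop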
- CONDITION LABEL: primary human endothelial cells (HUVEC)
The source made the active and inactive calls. The calls were made as follows: active = hit-call score of the fitted dose curve at least 0.9, where 1 is the maximum; inactive = score below 0.9.
Response enum: active, inactive

Reference set, count: 3
INSERT INTO results (molecule, discrete_label) VALUES
  ('CC(C)(C)[C@@H](O)[C@@H](Cc1ccc(Cl)cc1)n1cncn1', 'inactive'),
  ('COc1nc(C)nc(NC(=O)NS(=O)(=O)c2ccccc2OCCCl)n1', 'inactive'),
  ('COC(=O)c1ccccc1S(=O)(=O)NC(=O)Nc1nc(OC(F)F)cc(OC(F)F)n1', 'inactive');

Exercise: Per the records of this test, what outcome belongs to S=C(S)NCCNC(=S)S.[Mn+2].[S-]C([S-])=NCCN=C([S-])[S-].[Zn+2] ?
Solution: inactive

Exercise: Per the records of this test, what outcome belongs to CC1(C)C(C=C(Cl)Cl)C1C(=O)OCc1cccc(Oc2ccccc2)c1 (centres undefined) ?
Solution: active

Exercise: Per the records of this test, what outcome belongs to CSC(=O)c1cccc2nnsc12 ?
Solution: inactive
